Target: thrombin (Homo sapiens, UniProt P00734)
Construct: consists of two polypeptide chains of 36 (light chain) and 259 amino acid
Test: Thrombin inhibition screen of crude macrocycle reactions (residual thrombin activity, fluorogenic substrate Z-Gly-Gly-Arg-AMC)
Assay type: biochemical
Details: 10 µM macrocycle concentration; crude reactions, Library 1a-l; scaffold AA1-AA2-AA3 combined with 1-16 or '-'
Numbered stars: 1 amine (or outer) side, 2 acyl side, 3 side chain; on linkers, the order of the positions; unused ones are H or OH. Bridge positions count the residues as written; N and C are the ends. Square brackets hold non-standard residues; d marks the D form. Peptide text beside a SMILES is read from it. * marks the point of attachment. Cysteamide = C(CS[*:3])N[*:1]; Orn = NCCC[C@H](N)C(=O)O; 2Furoyl = O=C(c1ccco1)*; Mpa = O=C(O)CCS
Value kind: percent residual thrombin activity (%)
Answers are plain numbers, in %.

Illustrative cases are given below, each with its answer.
>>> test_value("NCCCC[C@@H]1NC(=O)[C@@H](CO)NC(=O)[C@@H]2CCCN2C(=O)CCSSCCNC1=O [B1-s-D1/-] ([Mpa]P[dS]K-Cysteamide; disulfide 1-C)")
113.487
>>> test_value("Cc1nnsc1C(=O)NCCCC[C@@H]1NC(=O)[C@@H](Cc2ccc(O)cc2)NC(=O)c2ccc(cc2)CNC(=O)CCSSCCNC1=O [B3-y-D1/15]")
112.065
>>> test_value("C[C@H]1NC(=O)CCSSCCNC(=O)c2cccc(c2)CNC(=O)[C@H](CCCCNC(=O)c2ccc(Cl)s2)NC1=O [a-D1-B5/14]")
102.51
>>> test_value("O=C1CCSSCCNC(=O)[C@@H]2CCCN2C(=O)[C@H](Cc2ccc(O)cc2)NC(=O)[C@H](CCCNC(=O)c2ccco2)N1 [D2-Y-B1/16] ([Mpa][Orn](2Furoyl)YP-Cysteamide; disulfide 1-C)")
105.138
>>> test_value("CC(C)C[C@@H]1NC(=O)CCSSCCNC(=O)[C@H](CCCN)NC(=O)[C@H]2CCCN(C2)C1=O [L-B4-D2/-]")
109.552

List percent residual thrombin activity for every entry below, keeping the order given.
1. O=C1CCSSCCNC(=O)[C@H](Cc2c[nH]c3ccccc23)NC(=O)[C@H](CCCNC(=O)c2cnccn2)NC(=O)C2(CC2)CN1 [B6-D2-W/2]
2. O=C1CCSSCCNC(=O)[C@H](CCCNC(=O)c2ccccc2)NC(=O)c2ccc(cc2)CNC(=O)[C@H](CO)N1 [S-B3-D2/1]

95.9188
105.629

Please state, for each entry, its recorded percent residual thrombin activity.
1. CC[C@H](C)[C@@H]1NC(=O)[C@H](CCCNC(=O)COc2ccccc2)NC(=O)CCSSCCNC(=O)CCNC1=O [D2-I-B2/13]
2. CC(C)[C@@H]1NC(=O)CCSSCCNC(=O)[C@@H]2CCCN2C(=O)[C@H](CCCCNC(=O)c2ccco2)NC1=O [v-D1-B1/16] ([Mpa]VK(2Furoyl)P-Cysteamide; disulfide 1-C)
3. O=C1CCSSCCNC(=O)[C@H](Cc2ccc(O)cc2)NC(=O)c2cccc(c2)CNC(=O)[C@H](CCCNC(=O)c2ccco2)N1 [D2-B5-Y/16]
4. CC[C@H](C)[C@@H]1NC(=O)[C@H](CCCNC(=O)c2snnc2C)NC(=O)c2cccc(c2)CNC(=O)CCSSCCNC1=O [B5-D2-I/15]
5. O=C1CCSSCCNC(=O)[C@H](Cc2ccc(O)cc2)NC(=O)[C@H](CCCCNC(=O)c2c[nH]c(=O)cn2)NC(=O)c2ccc(cc2)CN1 [B3-D1-Y/9]

1. 114.645
2. 102.421
3. 100.852
4. 106.982
5. 101.633

All values here come from paper PMC9250534.
